# CC50 listing for each entry below
- Test system: HT-29
- experiment: SRB colorimetric assay of cell growth and viability, HT-29
- Assay type: cell-based, human
- measurement_parameters: 48 hours exposure; read-out: LC50 HT-29
Where a SMILES comes first, the peptide text is derived from it. Bridges are numbered along the chain shown (N, C = ends). [ ]: non-standard residue; d: D form. The star is where a group is joined. d(aIle) = CC[C@H](C)[C@@H](N)C(=O)O; d(aThr) = C[C@@H](O)[C@@H](N)C(=O)O; Hexanoyl(5-Me) = CC(C)CCCC(=O)*; Orn = NCCC[C@H](N)C(=O)O; Dhb = C/C=C(\N)C(=O)O
Value expressed in µM; do not type the unit.

Sample answers from the record:
- compound: "C/C=C1\\NC(=O)[C@H](Cc2ccccc2)NC(=O)[C@@H](C(C)C)NC(=O)[C@@H]([C@@H](C)CC)NC(=O)[C@H](NC(=O)[C@H](NC(=O)[C@H](CCCN)NC(=O)[C@H]2CCCN2C(=O)[C@H](NC(=O)CNC(=O)[C@@H](NC(=O)[C@H](NC(=O)CCCC(C)C)C(C)C)[C@@H](C)O)C(C)C)[C@@H](C)CC)[C@@H](C)OC(=O)[C@H](C(C)C)NC1=O [Compound 42, [Gly^11]-KF] ({Hexanoyl(5-Me)}-[dV]TG[dV][dP][Orn][d(aIle)][d(aThr)][d(aIle)][dV]F[Dhb]V; ester 8-C)"
  unit_abbreviation: "µM"
  CC50: 6.96
- compound: "C/C=C1\\NC(=O)[C@H](Cc2ccccc2)NC(=O)[C@@H](C(C)C)NC(=O)[C@@H]([C@@H](C)CC)NC(=O)[C@H](NC(=O)[C@H](NC(=O)[C@H](CCCN)NC(=O)[C@H]2CCCN2C(=O)[C@H](NC(=O)[C@@H](NC(=O)[C@@H](NC(=O)CNC(=O)CCCC(C)C)[C@@H](C)O)C(C)C)C(C)C)[C@@H](C)CC)[C@@H](C)OC(=O)[C@H](C(C)C)NC1=O [Compound 33, [Gly^13]-KF]"
  unit_abbreviation: "µM"
  CC50: 6.96
- compound: "C/C=C1\\NC(=O)[C@H](Cc2ccccc2)NC(=O)[C@@H](C(C)C)NC(=O)[C@@H]([C@@H](C)CC)NC(=O)[C@H](NC(=O)[C@H](NC(=O)[C@H](CCCN)NC(=O)[C@H]2CCCN2C(=O)[C@H](NC(=O)[C@@H](NC(=O)[C@@H](NC(=O)[C@@H](Cc2ccccc2)NC(=O)CCCC(C)C)[C@@H](C)O)C(C)C)C(C)C)[C@@H](C)CC)[C@@H](C)OC(=O)[C@H](C(C)C)NC1=O [Compound 36, [D-Phe^13]-KF]"
  unit_abbreviation: "µM"
  CC50: 2.84

Turning now to a further compound:
Q: Return value of CC50 for input C/C=C1\NC(=O)[C@H](Cc2ccccc2)NC(=O)[C@@H](C(C)C)NC(=O)[C@@H]([C@@H](C)CC)NC(=O)[C@H](NC(=O)[C@H](NC(=O)[C@H](CCCN)NC(=O)[C@H]2CCCN2C(=O)[C@H](NC(=O)[C@@H]2CCCN2C(=O)[C@@H](NC(=O)[C@H](NC(=O)CCCC(C)C)C(C)C)[C@@H](C)O)C(C)C)[C@@H](C)CC)[C@@H](C)OC(=O)[C@H](C(C)C)NC1=O [Compound 47, [Pro^11]-KF] ({Hexanoyl(5-Me)}-[dV]TP[dV][dP][Orn][d(aIle)][d(aThr)][d(aIle)][dV]F[Dhb]V; ester 8-C) , no commentary.
A: 6.78
